Tested on: MCF7
assay_remarks: Antiproliferative activity against human MCF7 cells after 72 hrs by MTS assay
Format: functional, cell-based
condition_label: MCF7, 72 h
readout_type: IC50 (nM)
Provide the reading as a plain figure in nM.

Guide cases for IC50, answers given:
CC(C)=CCc1cc(C(=O)Nc2cccc(-c3ccc(OC4CCN(C)CC4)cc3)c2)ccc1O = 2210
CN1CCC(Oc2ccc(-c3cccc(NC(=O)c4cccc5ccccc45)c3)cc2)CC1 = 1100
COc1ccc(C(=O)Nc2cccc(-c3ccc(OC4CCN(C)CC4)cc3)c2)cc1 = 5520

Note: attention shifts to another entry.
Problem: For the molecule shown here, "CN1CCC(Oc2ccc(-c3cccc(NC(=O)c4ccc(C(C)(C)C)cc4)c3)cc2)CC1" , give the reported IC50.
Solution: 3450

Sourced from ChEMBL document CHEMBL3108734
